Data provenance: paper PMC9521027

target: URAT1 K393R mutant (Homo sapiens, UniProt Q96S37, K393R); test: 14C-uric acid uptake assay in transfected HEK293 cells; assay type: cell-based
Sequence (Q96S37 whole entry K393R): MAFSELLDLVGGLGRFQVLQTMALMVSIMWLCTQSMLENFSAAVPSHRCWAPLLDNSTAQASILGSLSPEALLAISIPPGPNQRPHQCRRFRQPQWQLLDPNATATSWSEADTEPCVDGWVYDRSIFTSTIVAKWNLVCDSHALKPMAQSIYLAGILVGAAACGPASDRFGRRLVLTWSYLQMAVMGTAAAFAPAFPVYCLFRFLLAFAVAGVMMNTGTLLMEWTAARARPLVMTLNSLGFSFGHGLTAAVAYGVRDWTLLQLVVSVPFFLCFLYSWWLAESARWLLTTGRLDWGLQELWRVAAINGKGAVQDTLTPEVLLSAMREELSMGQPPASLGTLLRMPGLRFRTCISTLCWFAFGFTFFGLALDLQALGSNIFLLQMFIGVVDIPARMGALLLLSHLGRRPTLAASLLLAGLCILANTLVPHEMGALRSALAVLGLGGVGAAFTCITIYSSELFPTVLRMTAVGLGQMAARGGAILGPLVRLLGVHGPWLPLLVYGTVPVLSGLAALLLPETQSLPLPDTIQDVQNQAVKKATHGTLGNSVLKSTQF
parameter: pIC50
pIC50 is a log-scale quantity: -log10 of the concentration expressed in molar.

I would be grateful if you could share the reported pIC50 for CC(C)(Sc1ccncc1-c1ccc(C#N)c2ccccc12)C(=O)O . 6.51

---

biological target: URAT1 WT (Homo sapiens, UniProt Q96S37); test: Competitive inhibition test of unlabeled uric acid on 14C-uric acid uptake
Sequence (Q96S37 whole entry): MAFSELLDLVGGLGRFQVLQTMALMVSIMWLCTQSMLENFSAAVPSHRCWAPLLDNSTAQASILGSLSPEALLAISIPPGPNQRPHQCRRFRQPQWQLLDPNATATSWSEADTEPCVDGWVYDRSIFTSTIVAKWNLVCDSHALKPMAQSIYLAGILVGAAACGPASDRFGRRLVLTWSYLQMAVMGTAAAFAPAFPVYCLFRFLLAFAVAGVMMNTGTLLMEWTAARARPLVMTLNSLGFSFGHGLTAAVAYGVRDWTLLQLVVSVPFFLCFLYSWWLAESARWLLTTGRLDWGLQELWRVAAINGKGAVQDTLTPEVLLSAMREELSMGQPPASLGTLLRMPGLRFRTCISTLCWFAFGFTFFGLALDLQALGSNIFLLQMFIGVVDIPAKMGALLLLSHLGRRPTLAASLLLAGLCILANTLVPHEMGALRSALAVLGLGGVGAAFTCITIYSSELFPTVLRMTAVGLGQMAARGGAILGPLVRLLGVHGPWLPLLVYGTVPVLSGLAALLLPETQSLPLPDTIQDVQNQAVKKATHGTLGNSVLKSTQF
parameter: pIC50
pIC50 is a log-scale quantity: -log10 of the concentration expressed in molar.

Please tell me: pIC50 of O=c1[nH]c(=O)c2[nH]c(=O)[nH]c2[nH]1 , system URAT1 WT (Homo sapiens, UniProt Q96S37)? 3.94

---

molecular target: URAT1 K393A mutant (Homo sapiens, UniProt Q96S37, K393A); test: 14C-uric acid uptake assay in transfected HEK293 cells
Sequence (Q96S37 whole entry K393A): as the sequence (Q96S37 whole entry) above, with K393A counted along it
parameter: pIC50
pIC50 is a log-scale quantity: -log10 of the concentration expressed in molar.

I would be grateful if you could share the reported pIC50 for CC(C)(Sc1ccncc1-c1ccc(C#N)c2ccccc12)C(=O)O . 6.38

---

biological target: URAT1 K393R mutant (Homo sapiens, UniProt Q96S37, K393R); assay: 14C-uric acid binding assay with membrane protein; conditions: 1 μM BM, 1 μM verinurad, 10 μM lesinurad, 20 μM probenecid, 30 min, 25 μM 14C-uric acid
parameter: Effect of inhibitor on 14C-uric acid binding compared with WT group

{"compound": "CC(C)(Sc1ccncc1-c1ccc(C#N)c2ccccc12)C(=O)O [verinurad]", "experimentalResult": "similar"}
{"compound": "O=C(O)CSc1nnc(Br)n1-c1ccc(C2CC2)c2ccccc12 [lesinurad]", "experimentalResult": "similar"}
{"compound": "CCCN(CCC)S(=O)(=O)c1ccc(C(=O)O)cc1 [probenecid]", "experimentalResult": "similar"}

---

molecular target: URAT1 K393H mutant (Homo sapiens, UniProt Q96S37, K393H); test: Competitive inhibition test of unlabeled uric acid on 14C-uric acid uptake; type: cell-based
Sequence (Q96S37 whole entry K393H): as the sequence (Q96S37 whole entry K393R) above, with R393H counted along it
parameter: pIC50
pIC50 is a log-scale quantity: -log10 of the concentration expressed in molar.

I would be grateful if you could share the reported pIC50 for O=c1[nH]c(=O)c2[nH]c(=O)[nH]c2[nH]1 . 3.92

---

molecular target: URAT1 K393H mutant (Homo sapiens, UniProt Q96S37, K393H); assay: 14C-uric acid binding assay with membrane protein; details: 1 μM BM, 1 μM verinurad, 10 μM lesinurad, 20 μM probenecid, 30 min, 25 μM 14C-uric acid
parameter: Effect of inhibitor on 14C-uric acid binding compared with WT group

{"molecule": "CC(C)(Sc1ccncc1-c1ccc(C#N)c2ccccc12)C(=O)O [verinurad]", "tgt": "URAT1 K393H mutant (Homo sapiens, UniProt Q96S37, K393H)", "experimentalResult": "similar"}
{"molecule": "CCCN(CCC)S(=O)(=O)c1ccc(C(=O)O)cc1 [probenecid]", "tgt": "URAT1 K393H mutant (Homo sapiens, UniProt Q96S37, K393H)", "experimentalResult": "similar"}
{"molecule": "O=C(O)CSc1nnc(Br)n1-c1ccc(C2CC2)c2ccccc12 [lesinurad]", "tgt": "URAT1 K393H mutant (Homo sapiens, UniProt Q96S37, K393H)", "experimentalResult": "similar"}
